The entries below are paired with their reported GI50.
Tested on: NCI-H522
ASSAY_EXPLANATION: NCI tumour cell line growth inhibition, 48 h
Calls of active or inactive are those of the source. No stated cut-off is given here; in the data, active = GI50 up to about 1.1 µM and inactive = higher.

Known results for compounds:
INSERT INTO results (compound, study_target, reading) VALUES
  ('COc1ccc(/C=C/C(=N/NC(=O)N/N=C(/C=C/c2ccc(OC)cc2)C(C)C)C(C)C)cc1', 'NCI-H522', '63.1 µM (inactive)'),
  ('O=S(=O)(c1ccccc1)N1CCN(S(=O)(=O)c2ccccc2)c2ccccc21', 'NCI-H522', '42.5 µM (inactive)');

Ask: # input compound: C[C@@H]1CCC2[C@@H](C)[C@H](O[C@H]3O[C@@H]4O[C@@]5(C)CCC6[C@H](C)CCC([C@H]3C)[C@]64OO5)O[C@@H]3O[C@@]4(C)CCC1[C@@]23OO4 (some centres undefined) ; wanted: its GI50
Reply: 0.0577 µM (active)

Ask: # repeat for CN(C)CC1CCC(=C2CCCC2)C1=O (centres undefined)
Reply: 1.71 µM (inactive)

Ask: # repeat for N=C(N)NS(=O)(=O)c1ccc(NNc2c3ccccc3nc3c(C(=O)Nc4ccc(S(N)(=O)=O)cc4)cccc23)cc1
Reply: 14.7 µM (inactive)

Ask: # repeat for CC1CN(c2cc3c(cc2F)c(=O)c(C(=O)O)cn3-c2ccc(F)cn2)CC(C)N1 (centres undefined)
Reply: 22.5 µM (inactive)

Ask: # repeat for CC(C)[Si](OC1=C(C(=O)N(C)c2ccccc2Cl)CCCC1)(C(C)C)C(C)C
Reply: 5.77 µM (inactive)

---

Tested on: DMS-114
ASSAY_EXPLANATION: NCI tumour cell line growth inhibition, 48 h
Active and inactive are the calls of the source. Rule as the data show it: active = GI50 up to about 1.1 µM and inactive = higher. Where a SMILES comes first, the peptide text is derived from it. [ ]: non-standard residue; d: D form. Phe(4-Cl) = N[CH](Cc1ccc(Cl)cc1)C(=O)O
The entries below are paired with their reported GI50.

Known results for molecules:
INSERT INTO assay_data (molecule, study_target, reading) VALUES
  ('COC(=O)/C=C1\CCC2[C@@H](C(=O)CC3[C@]2(C)CCC[C@@]3(C)C(=O)OC)C1C (stereo not given in full)', 'DMS-114', '16.1 µM (inactive)'),
  ('NC(=S)/N=C(/c1nc2ccc(Cl)cc2nc1O)C(O)c1ccccc1Cl (stereo not given)', 'DMS-114', '> 100 µM (inactive)'),
  ('O=c1cc[nH]c2c1ccc1ncccc12', 'DMS-114', '> 100 µM (inactive)'),
  ('CC(C)Cc1ccc(C(C)C(=O)N2CCN(/C=C/c3ccccc3)CC2)cc1 (stereo not given)', 'DMS-114', '10.8 µM (inactive)');

Ask: # input molecule: CC(O)C(NC(=O)C(Cc1ccccc1)NC(=O)C(NC(=O)C(CCCCN)NC(=O)C(Cc1c[nH]c2ccccc12)NC(=O)C(Cc1ccc(O)cc1)NC(=O)C(Cc1ccc(Cl)cc1)NC(=O)C(N)Cc1ccccc1)C(C)O)C(N)=O (stereo not given) (H-F[Phe(4-Cl)]YWKTFT-NH2; configuration not given here) ; wanted: its GI50
Reply: 17.3 µM (inactive)

Ask: # repeat for CCN(CC)CCCC(C)Nc1c2ccc(Cl)cc2nc2ccc(OC)cc12 (stereo not given)
Reply: 1.7 µM (inactive)

Ask: # repeat for CCc1cccc(CC)c1NC(=O)C(C#N)C1=C(Cl)C(=O)c2ccccc2C1=O (stereo not given)
Reply: 22 µM (inactive)

---

The entries below are paired with their reported GI50.
Test system: NCI-H460
ASSAY_EXPLANATION: NCI tumour cell line growth inhibition, 48 h
Active and inactive are the calls of the source. Cut-off read from the data, not from the text of the source: active = GI50 up to about 1.1 µM and inactive = higher.

Known results for compounds:
INSERT INTO measurements (compound, assay_readout, reading) VALUES
  ('CN(/N=C/c1cccc2cccnc12)c1ccc(Cl)cc1[N+](=O)[O-]', 'GI50', '45.7 µM (inactive)'),
  ('CC(=O)OC1[C@H]2c3cc4c(cc3CN3CCC(C[C@@H]1OC(C)=O)C23)OCO4 (stereo not given in full)', 'GI50', '> 75 µM (inactive)'),
  ('CC(=O)N1NC(c2ccccc2)=CC(=O)/C1=C/C(=O)c1ccccc1', 'GI50', '71.1 µM (inactive)');

Ask: I'm curious: which GI50 was measured for O=C(O)C(Cl)(Cl)Cl tested on NCI-H460?
Reply: > 100 µM (inactive)

Ask: # repeat for COC(=O)c1ccc(/C=C2\CCc3ccccc3C2=O)cc1
Reply: > 100 µM (inactive)

Ask: # repeat for CN(C(=O)C1CCCCCC1=O)c1ccccc1Cl (stereo not given)
Reply: > 100 µM (inactive)

Ask: # repeat for COc1ccccc1Nc1nc(NNC(=O)Cc2ccccc2)nc(NNC(=O)c2ccncc2)n1
Reply: > 10 µM (inactive)

Ask: # repeat for CC[C@@H](C)[C@H](NC(=O)[C@H](Cc1ccccc1)NCC(F)(F)F)C(=O)OC(C)(C)C
Reply: > 100 µM (inactive)

Ask: # repeat for CCOC(=O)C1(C(=O)OCC)[C@@H](c2ccccc2)C2=NO[C@@H]3CCC[C@H]1[C@H]23
Reply: 57.7 µM (inactive)

Ask: # repeat for O=C1Nc2ccccc2/C1=C1/Nc2ccccc2/C1=N/OCCOCCO
Reply: 1.21 µM (inactive)

---

System: A549
ASSAY_EXPLANATION: NCI tumour cell line growth inhibition, 48 h
Active and inactive are the calls of the source. No stated cut-off is given here; in the data, active = GI50 up to about 1.1 µM and inactive = higher.
ASSAY_READOUT: GI50

Known results for compounds:
INSERT INTO results (compound, assay_readout, reading) VALUES
  ('O=Cc1c2n(c3ccccc13)N[C@@](Cc1ccc(O)cc1)(C(=O)O)C2', 'GI50', '> 100 µM (inactive)'),
  ('CCC12CCCN(Cc3ccccc3)C1c1c([nH]c3ccccc13)C(C(=O)OC)C2 (stereo not given)', 'GI50', '> 10 µM (inactive)'),
  ('Cc1ccccc1/N=C/c1ccc(N(CCC#N)S(=O)(=O)c2ccccc2)cc1', 'GI50', '> 100 µM (inactive)'),
  ('N=C(/C=C/c1ccc(-c2cn3cc(/C=C/C(=N)N4CCCC4)ccc3n2)cc1)N1CCCC1', 'GI50', '61.9 µM (inactive)');

Note: attention shifts to another entry.
Ask: # input compound: COc1c(-c2nc3ccc(N4CCN(C)CC4)nc3[nH]2)cc(OC)c2c1nc(CO)n2C ; wanted: its GI50
Reply: > 100 µM (inactive)

---

System: M19-MEL
ASSAY_EXPLANATION: NCI tumour cell line growth inhibition, 48 h
Calls of active or inactive are those of the source. Cut-off read from the data, not from the text of the source: active = GI50 up to about 1.1 µM and inactive = higher.
The entries below are paired with their reported GI50.

Known results for compounds:
INSERT INTO measurements (compound, reading) VALUES
  ('CCN(CC)CCCC(C)Nc1c2ccc(Cl)cc2nc2ccc(OC)cc12 (stereo not given)', '1.76 µM (inactive)'),
  ('CCCC(=O)OCC1OC(n2ccc(N)nc2=O)C(OC(=O)CCC)C1OC(=O)CCC (stereo not given)', '43.2 µM (inactive)'),
  ('COc1cccc(NC(=O)CC(=O)N2NC(c3ccccc3)C(/N=N/c3cccc(C(=O)O)c3)C2=O)c1 (stereo not given)', '> 100 µM (inactive)'),
  ('C/N=c1\ss/c(=N\C(=S)N(C)C)n1-c1ccccc1', '> 100 µM (inactive)'),
  ('CC1=C(c2cc(C(=O)Nc3cccc(C(F)(F)F)c3)nc(NC#N)n2)Sc2ccccc2N1', '> 100 µM (inactive)');

Ask: # input compound: O=C1c2ccccc2C(Br)(Br)c2ccccc21 ; wanted: its GI50
Reply: > 31.6 µM (inactive)

Ask: # repeat for O=C[C@@H](CO)O[C@H](C=O)c1c[nH]c(=O)[nH]c1=O
Reply: 104 µM (inactive)

Ask: # repeat for CC(=O)OCC(=O)[C@@]1(O)CC[C@H]2[C@@H]3CCC4=CC(=O)[C@H](C)C[C@]4(C)[C@H]3[C@@H](O)C[C@@]21C
Reply: > 100 µM (inactive)

Ask: # repeat for Nc1ccn(C2C=C(CO)C(O)C2O)c(=O)c1 (stereo not given)
Reply: > 625 µM (inactive)

Ask: # repeat for Cc1ccccc1/N=C/c1ccc(N(CCC#N)S(=O)(=O)c2ccccc2)cc1
Reply: > 100 µM (inactive)

---

Tested on: OVCAR-4
ASSAY_EXPLANATION: NCI tumour cell line growth inhibition, 48 h
Calls of active or inactive are those of the source. No stated cut-off is given here; in the data, active = GI50 up to about 1.1 µM and inactive = higher.
ASSAY_READOUT: GI50

Known results for compounds:
INSERT INTO measurements (compound, study_target, reading) VALUES
  ('NC(=S)/N=C(/c1nc2ccc(Cl)cc2nc1O)C(O)c1ccccc1Cl (stereo unspecified)', 'OVCAR-4', '> 100 µM (inactive)'),
  ('O=C(CC(Cl)=C(Cl)Cl)c1ccccc1', 'OVCAR-4', '17.5 µM (inactive)'),
  ('Nc1ccccc1.O=P(O)(O)c1ccccc1', 'OVCAR-4', '> 100 µM (inactive)'),
  ('CCCCCC(=O)c1ccc2[nH]c3c(C)cc([N+](=O)[O-])c(C)c3c2c1', 'OVCAR-4', '89.3 µM (inactive)'),
  ('CC(C)CNC(=O)CCc1cccc2c1oc1c(CCN)cccc12', 'OVCAR-4', '18 µM (inactive)'),
  ('O=C[C@@H](CO)O[C@H](C=O)c1c[nH]c(=O)[nH]c1=O', 'OVCAR-4', '83.9 µM (inactive)');

Ask: # input compound: Cc1ccc(C)c(COCCOCn2c(=O)[nH]c(=O)c3cc(Br)ccc32)c1 ; wanted: its GI50
Reply: 47.8 µM (inactive)

Ask: # repeat for CS/C(=C(\S)c1ccccc1)c1ccccc1
Reply: > 87.1 µM (inactive)

Ask: # repeat for c1ccc(N2CCN(CCN3CCc4c([nH]c5ccccc45)C3c3cccnc3)CC2)cc1 (stereo unspecified)
Reply: > 100 µM (inactive)

Ask: # repeat for CCCNC(=O)c1cc(NC(=O)c2cc(NC(=O)CCS(=O)(=O)OC)cn2C)cn1C
Reply: 26.5 µM (inactive)

Ask: # repeat for O=C(CNC(=O)c1ccccc1)Oc1c(Cl)c(Cl)c(Cl)c(Cl)c1Cl
Reply: 45.5 µM (inactive)
